- Target Under Test: the molecule itself
- Assay Procedure: SEC; Superdex 200 10/300 analytical column in stabilizing buffer (50 mM Tris pH 7 or 50 mM Hepes pH 8 with 100 mM and 10% glycerol); apparent MW against standards; G80R in dark and light state
Measurement Kind: stoichiometry N

Form field: reported stoichiometry N of ZTL 16–165 (domain or fragment, Arabidopsis thaliana, UniProt Q94BT6 16-165, looked up, source: purified protein) SLADDEEGGLFPGGGPIPYPVGNLLHTAPCGFVVTDAVEPDQPIIYVNTVFEMVTGYRAEEVLGGNCRFLQCRGPFAKRRHPLVDSMVVSEIRKCIDEGIEFQGELLNFRKDGSPLMNRLRLTPIYGDDDTITHIIGIQFFIETDIDLGP
2

Form field: reported stoichiometry N of WT ZTL 29–165 (ZEITLUPE LOV domain construct ZTL-S) (domain or fragment, Arabidopsis thaliana, UniProt Q94BT6 29-165, looked up, also called ZTL LOV domain) GGPIPYPVGNLLHTAPCGFVVTDAVEPDQPIIYVNTVFEMVTGYRAEEVLGGNCRFLQCRGPFAKRRHPLVDSMVVSEIRKCIDEGIEFQGELLNFRKDGSPLMNRLRLTPIYGDDDTITHIIGIQFFIETDIDLGP
2

Form field: reported stoichiometry N of ZTL 29–165 V48I:G80R (domain or fragment, Arabidopsis thaliana, UniProt Q94BT6 29-165, looked up, Crystallised in the dark state (5SVV) and in the light state with the C4a adduct between C82 and FMN (5SVW)) GGPIPYPVGNLLHTAPCGFIVTDAVEPDQPIIYVNTVFEMVTGYRAEEVLGRNCRFLQCRGPFAKRRHPLVDSMVVSEIRKCIDEGIEFQGELLNFRKDGSPLMNRLRLTPIYGDDDTITHIIGIQFFIETDIDLGP
2

Form field: reported stoichiometry N of FKF1 28–174 (FLAVIN-BINDING, KELCH REPEAT, F-BOX 1 LOV domain) (domain or fragment, Arabidopsis thaliana, UniProt Q9C9W9 28-174, looked up, source: purified protein) NDGIEEQVEDEKLPLEVGMFYYPMTPPSFIVSDALEPDFPLIYVNRVFEVFTGYRADEVLGRNCRFLQYRDPRAQRRHPLVDPVVVSEIRRCLEEGIEFQGELLNFRKDGTPLVNRLRLAPIRDDDGTITHVIGIQVFSETTIDLDR
2

Form field: reported stoichiometry N of ZTL 29–165 G46S:G80R (domain or fragment, Arabidopsis thaliana, UniProt Q94BT6 29-165, looked up) GGPIPYPVGNLLHTAPCSFVVTDAVEPDQPIIYVNTVFEMVTGYRAEEVLGRNCRFLQCRGPFAKRRHPLVDSMVVSEIRKCIDEGIEFQGELLNFRKDGSPLMNRLRLTPIYGDDDTITHIIGIQFFIETDIDLGP
2

Form field: reported stoichiometry N of ZTL 29–165 G80R (domain or fragment, Arabidopsis thaliana, UniProt Q94BT6 29-165, looked up, Tested by SEC in dark and light state) GGPIPYPVGNLLHTAPCGFVVTDAVEPDQPIIYVNTVFEMVTGYRAEEVLGRNCRFLQCRGPFAKRRHPLVDSMVVSEIRKCIDEGIEFQGELLNFRKDGSPLMNRLRLTPIYGDDDTITHIIGIQFFIETDIDLGP
2
